# System: mu opiate receptor (MOR)
# assay.protocol: MOR agonist activity using [35S]GTPγS binding assay in striatal membranes
# Format: biochemical
# assay.setup: Series B; 0.1 μM compound; [35S]GTPγS binding to Gαo, striatal membranes
readout: MOR agonist activity, percent [35S]GTPγS binding at the stated compound concentration

[
  {
    "molecule": "COc1ccc(CCC(=O)CC2c3c(cc4c(c3OC)OCO4)CC[N+]2(C)C)cc1OC (centres unmarked)",
    "test.result": "69.9%"
  },
  {
    "molecule": "COc1ccc(CCC(=O)CC2c3c(cc4c(c3OC)OCO4)CCN2C)cc1 (centres unmarked)",
    "test.result": "187.8%"
  },
  {
    "molecule": "COc1cccc(CCC(=O)CC2c3c(cc4c(c3OC)OCO4)CC[N+]2(C)C)c1 (centres unmarked)",
    "test.result": "122.5%"
  },
  {
    "molecule": "COc1c2c(cc3c1C(CC(=O)Cc1ccccc1C)[N+](C)(C)CC3)OCO2 (centres unmarked)",
    "test.result": "210.8%"
  },
  {
    "molecule": "COc1ccc(C(=O)CC2c3c(cc4c(c3OC)OCO4)CC[N+]2(C)C)cc1OC (centres unmarked)",
    "test.result": "152.0%"
  },
  {
    "molecule": "COc1ccccc1C(=O)CC1c2c(cc3c(c2OC)OCO3)CC[N+]1(C)C (centres unmarked)",
    "test.result": "159.6%"
  },
  {
    "molecule": "COc1c2c(cc3c1C(CC(O)CCc1ccccc1)N(C)CC3)OCO2 (centres unmarked)",
    "test.result": "115.6%"
  },
  {
    "molecule": "COc1ccc(C(=O)CC2c3c(cc4c(c3OC)OCO4)CC[N+]2(C)C)c(F)c1 (centres unmarked)",
    "test.result": "140.9%"
  }
]

* * *

# Test system: mu opiate receptor (MOR)
# assay.protocol: MOR agonist activity using [35S]GTPγS binding assay in striatal membranes
# Assay type: biochemical
# assay.setup: Series B; 1 μM compound; [35S]GTPγS binding to Gαo, striatal membranes
readout: MOR agonist activity, percent [35S]GTPγS binding at the stated compound concentration (%)

[
  {
    "molecule": "COc1cc(CC(=O)CC2c3c(cc4c(c3OC)OCO4)CC[N+]2(C)C)cc(OC)c1OC (stereo not shown)",
    "test.result": 264.1
  },
  {
    "molecule": "COc1ccccc1CC(O)CC1c2c(cc3c(c2OC)OCO3)CCN1C (stereo not shown)",
    "test.result": 276.1
  },
  {
    "molecule": "COc1c2c(cc3c1C(CC(=O)c1ccc(N4CCOCC4)cc1)[N+](C)(C)CC3)OCO2 (stereo not shown)",
    "test.result": 231.7
  },
  {
    "molecule": "COc1c2c(cc3c1C(CC(=O)Cc1ccccc1F)[N+](C)(C)CC3)OCO2 (stereo not shown)",
    "test.result": 338.5
  }
]

* * *

# Tested on: mu opiate receptor (MOR)
# assay.protocol: MOR agonist activity using [35S]GTPγS binding assay in striatal membranes
# Assay type: biochemical
# assay.setup: 1 μM compound + BFNA relative to DAMGO + BFNA
# Method: To assess the mu opiate receptor (MOR) agonist activity of positive compounds from the FLNA screening, compounds were tested in a [^35S]GTPγS binding assay using striatal membranes. […] The immunocomplexes so formed were collected by incubation at 25° C. for 30 minutes with 40 μl of agarose-conjugated protein A/G beads and centrifugation at 5,000×g at 4° C. for 5 minutes. […] The radioactivity in the suspension was determined by liquid scintillation spectrometry.
# % DAMGO + BFNA per record follows

[
  {
    "compound": "Cc1cccc(OCC(O)CN2CC(C)OC(C)C2)c1 (centres unmarked) [Compound A0030]",
    "assayed.target": "mu opiate receptor (MOR)",
    "unit.of.measure": "%",
    "% DAMGO + BFNA": 628.1
  },
  {
    "compound": "CC1CCC(C(C)C)C(OCC(O)CN2CCCCC2)C1 (centres unmarked) [Compound A0005]",
    "assayed.target": "mu opiate receptor (MOR)",
    "unit.of.measure": "%",
    "% DAMGO + BFNA": 45.1
  },
  {
    "compound": "CC1CCC(C(C)C)C(OCC(O)CN2CCC(=O)C(C)C2)C1 (centres unmarked) [Compound A0056]",
    "assayed.target": "mu opiate receptor (MOR)",
    "unit.of.measure": "%",
    "% DAMGO + BFNA": 43.6
  },
  {
    "compound": "CC1CCC(C(C)C)C(OCC(CN2CC(C)OC(C)C2)NCc2ccccc2)C1 (centres unmarked) [Compound A0033]",
    "assayed.target": "mu opiate receptor (MOR)",
    "unit.of.measure": "%",
    "% DAMGO + BFNA": 159.9
  },
  {
    "compound": "CC1CCC(C(C)C)C(OCC(O)CN2CC(C)OC(C)C2)C1 (centres unmarked) [Compound A0032-1]",
    "assayed.target": "mu opiate receptor (MOR)",
    "unit.of.measure": "%",
    "% DAMGO + BFNA": 303.8
  }
]
